# PROTOCOL: Metabolic stability assay of 4-HNFa in phase II metabolizing system
# Type: in vitro ADME
# SETTINGS: human, pH 7.4; HLMs in the presence of UDPGA; read-out: metabolic half-life t1/2
READOUT: half-life at 20 μM (min)
Provide the reading as a plain figure in min.

{"columns": ["COMPOUND", "half-life at 20 μM [min]"],
 "data": [
  ["O=c1ccc2ccc(O)cc2o1 [7‐hydroxycoumarin, reference compound]", 16.9]
]}

Proceed to the following item.
Request: Read off the recorded half-life at 20 μM for O=C1c2cccc3c(O)ccc(c23)C(=O)N1Cc1cscn1 [4-HNFa]
Result: 58.6

###

# PROTOCOL: In vivo inhibitory effect against CYP3A4 (pharmacokinetics of NFa with inhibitor)
# Parameters: species or system C57 mice
# SETTINGS: C57, mouse, plasma, po, 20 mg/kg, NFa 20 mg/kg i.g. with D13 50 mg/kg i.g., mice plasma
READOUT: Cmax (ng/mL)
Provide the reading as a plain figure in ng/mL.

Request: Read off the recorded Cmax for O=C1c2cccc3cccc(c23)C(=O)N1Cc1cscn1 [NFa, N-(4-Thiazolemethanamino)-naphtahlimide]
Result: 498

###

# PROTOCOL: Pharmacokinetics and oral bioavailability of NFa
# Assay type: in vivo
# SETTINGS: mouse, plasma, po; 20 mg/kg, i.g., mice
READOUT: Tmax (h)
Provide the reading as a plain figure in h.

Request: Read off the recorded Tmax for O=C1c2cccc3cccc(c23)C(=O)N1Cc1cscn1 [NFa, N-(4-Thiazolemethanamino)-naphtahlimide]
Result: 1.17

###

# PROTOCOL: Pharmacokinetics and oral bioavailability of NFa
# Format: in vivo
# SETTINGS: mouse, plasma, oral, 20 mg/kg, 20 mg/kg i.g. vs 2 mg/kg i.v., mice
READOUT: bioavailability (%)
Provide the reading as a plain figure in %.

Request: Read off the recorded bioavailability for O=C1c2cccc3cccc(c23)C(=O)N1Cc1cscn1 [NFa, N-(4-Thiazolemethanamino)-naphtahlimide]
Result: 15.3

###

# PROTOCOL: Pharmacokinetics and oral bioavailability of NFa
# Format: in vivo
# SETTINGS: mouse, plasma, iv; 2 mg/kg, mice
READOUT: Tmax (min)
Provide the reading as a plain figure in min.

Request: Read off the recorded Tmax for O=C1c2cccc3cccc(c23)C(=O)N1Cc1cscn1 [NFa, N-(4-Thiazolemethanamino)-naphtahlimide]
Result: 4.98

###

# PROTOCOL: In vivo inhibitory effect against CYP3A4 (pharmacokinetics of NFa with inhibitor)
# Parameters: species or system C57 mice
# SETTINGS: C57, mouse, plasma, po, 20 mg/kg, NFa 20 mg/kg i.g. with D13 50 mg/kg i.g., mice plasma; read-out: AUC(0‐inf)
READOUT: AUC (ng·h/mL)
Provide the reading as a plain figure in ng·h/mL.

Request: Read off the recorded AUC for O=C1c2cccc3cccc(c23)C(=O)N1Cc1cscn1 [NFa, N-(4-Thiazolemethanamino)-naphtahlimide]
Result: 4630

###

# MEASUREMENT_TARGET: CYP3A4 (Homo sapiens)
# Sequence (P08684 whole entry): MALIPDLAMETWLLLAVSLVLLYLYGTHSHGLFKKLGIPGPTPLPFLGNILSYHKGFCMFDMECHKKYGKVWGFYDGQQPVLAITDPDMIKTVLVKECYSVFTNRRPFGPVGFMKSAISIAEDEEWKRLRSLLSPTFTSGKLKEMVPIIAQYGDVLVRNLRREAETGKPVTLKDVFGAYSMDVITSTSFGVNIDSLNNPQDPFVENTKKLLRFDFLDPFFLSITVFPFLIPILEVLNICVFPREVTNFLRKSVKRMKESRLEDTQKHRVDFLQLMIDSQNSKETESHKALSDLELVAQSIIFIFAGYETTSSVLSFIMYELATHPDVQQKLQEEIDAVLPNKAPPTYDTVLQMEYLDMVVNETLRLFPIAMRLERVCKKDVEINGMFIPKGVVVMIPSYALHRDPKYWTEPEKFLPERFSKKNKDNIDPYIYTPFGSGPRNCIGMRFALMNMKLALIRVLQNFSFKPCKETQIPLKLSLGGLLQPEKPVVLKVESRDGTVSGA
# PROTOCOL: Inhibitory effect of D13 in CHO-3A4 stably transfected cell line
# Format: cell-based
# Design: expressed in transfected cells; host or cells: CHO-3A4 stably transfected cell line
# SETTINGS: CHO-3A4 cells, D13 1 h, NFa 10 μM 30 min; read-out: inhibitory effect (IC50) in living cells
READOUT: pIC50
// pIC50 is dimensionless: -log10 of concentration (M)

Request: Provide pIC50, recorded with CYP3A4 (Homo sapiens), of `O=C(/C=C/c1ccc2cnccc2c1)c1ccc(N2CCCC2)cc1`
Result: 7.60

###

# PROTOCOL: In vivo inhibitory effect against CYP3A4 (pharmacokinetics of NFa with inhibitor)
# Parameters: species or system C57 mice
# SETTINGS: C57, mouse, plasma, po, 20 mg/kg, NFa 20 mg/kg i.g., control group CMC‐Na, mice plasma
READOUT: Tmax (h)
Provide the reading as a plain figure in h.

Request: Read off the recorded Tmax for O=C1c2cccc3cccc(c23)C(=O)N1Cc1cscn1 [NFa, N-(4-Thiazolemethanamino)-naphtahlimide]
Result: 1.25

###

# PROTOCOL: Pharmacokinetics and oral bioavailability of NFa
# Type: in vivo
# SETTINGS: mouse, plasma, iv; 2 mg/kg, mice
READOUT: Cmax (ng/mL)
Provide the reading as a plain figure in ng/mL.

Request: Read off the recorded Cmax for O=C1c2cccc3cccc(c23)C(=O)N1Cc1cscn1 [NFa, N-(4-Thiazolemethanamino)-naphtahlimide]
Result: 913

###

# PROTOCOL: In vivo inhibitory effect against CYP3A4 (pharmacokinetics of NFa with inhibitor)
# Design: species or system C57 mice
# SETTINGS: C57, mouse, plasma, po, 20 mg/kg, NFa 20 mg/kg i.g. with RTV 50 mg/kg i.g., mice plasma
READOUT: Cmax (ng/mL)
Provide the reading as a plain figure in ng/mL.

Request: Read off the recorded Cmax for O=C1c2cccc3cccc(c23)C(=O)N1Cc1cscn1 [NFa, N-(4-Thiazolemethanamino)-naphtahlimide]
Result: 494

###

# PROTOCOL: Pharmacokinetics and oral bioavailability of NFa
# Type: in vivo
# SETTINGS: mouse, plasma, po; 20 mg/kg, i.g., mice
READOUT: AUC(0-inf) (ng·h/mL)
Provide the reading as a plain figure in ng·h/mL.

Request: Read off the recorded AUC(0-inf) for O=C1c2cccc3cccc(c23)C(=O)N1Cc1cscn1 [NFa, N-(4-Thiazolemethanamino)-naphtahlimide]
Result: 670

###

Listing of entries alongside the reported activity at 30 min, 1 µM.
# MEASUREMENT_TARGET: CYP3A4 (Homo sapiens)
# PROTOCOL: in vitro
# SETTINGS: pH 7.4
Provide the reading as a plain figure in %.

Please review the following examples before continuing.
{"columns": ["COMPOUND", "MEASURED_RESULT"],
 "data": [
  ["CCN1C[C@]2(COC)[C@H](O)C[C@H](OC)[C@@]34[C@@H]5C[C@@]6(O)[C@H](OC(=O)c7ccccc7)[C@@H]5[C@@](OC(C)=O)([C@@H]([C@H](OC)[C@H]23)[C@@H]14)[C@@H](O)[C@@H]6OC", 94.8],
  ["COc1ccc(-c2cc(=O)c3c(OC)c(OC)c(OC)c(OC)c3o2)cc1OC", 102]
]}

Proceed to the following item.
Request: Provide activity at 30 min, 1 µM, recorded with CYP3A4 (Homo sapiens), of CC(=O)N1CCN(c2ccc(OCC3COC(Cn4ccnc4)(c4ccc(Cl)cc4Cl)O3)cc2)CC1 (stereo not drawn) [KET, ketoconazole, reference compound]
Result: 1.91

###

# PROTOCOL: In vivo inhibitory effect against CYP3A4 (pharmacokinetics of NFa with inhibitor)
# Parameters: species or system C57 mice
# SETTINGS: C57, mouse, plasma, po, 20 mg/kg, NFa 20 mg/kg i.g. with D13 50 mg/kg i.g., mice plasma
READOUT: half-life (h)
Provide the reading as a plain figure in h.

Request: Read off the recorded half-life for O=C1c2cccc3cccc(c23)C(=O)N1Cc1cscn1 [NFa, N-(4-Thiazolemethanamino)-naphtahlimide]
Result: 6.37

###

# PROTOCOL: In vivo inhibitory effect against CYP3A4 (pharmacokinetics of NFa with inhibitor)
# Parameters: species or system C57 mice
# SETTINGS: C57, mouse, plasma, po, 20 mg/kg, NFa 20 mg/kg i.g. with RTV 50 mg/kg i.g., mice plasma
READOUT: Tmax (min)
Provide the reading as a plain figure in min.

Request: Read off the recorded Tmax for O=C1c2cccc3cccc(c23)C(=O)N1Cc1cscn1 [NFa, N-(4-Thiazolemethanamino)-naphtahlimide]
Result: 57

###

# PROTOCOL: In vivo inhibitory effect against CYP3A4 (pharmacokinetics of NFa with inhibitor)
# Design: species or system C57 mice
# SETTINGS: C57, mouse, plasma, po, 20 mg/kg, NFa 20 mg/kg i.g., control group CMC‐Na, mice plasma; read-out: AUC(0‐inf)
READOUT: AUC (ng·h/mL)
Provide the reading as a plain figure in ng·h/mL.

Request: Read off the recorded AUC for O=C1c2cccc3cccc(c23)C(=O)N1Cc1cscn1 [NFa, N-(4-Thiazolemethanamino)-naphtahlimide]
Result: 642

###

# PROTOCOL: In vivo inhibitory effect against CYP3A4 (pharmacokinetics of NFa with inhibitor)
# Parameters: species or system C57 mice
# SETTINGS: C57, mouse, plasma, po, 20 mg/kg, NFa 20 mg/kg i.g., control group CMC‐Na, mice plasma
READOUT: half-life (h)
Provide the reading as a plain figure in h.

Request: Read off the recorded half-life for O=C1c2cccc3cccc(c23)C(=O)N1Cc1cscn1 [NFa, N-(4-Thiazolemethanamino)-naphtahlimide]
Result: 2.22

###

# PROTOCOL: In vivo inhibitory effect against CYP3A4 (pharmacokinetics of NFa with inhibitor)
# Parameters: species or system C57 mice
# SETTINGS: C57, mouse, plasma, po, 20 mg/kg, NFa 20 mg/kg i.g. with RTV 50 mg/kg i.g., mice plasma; read-out: AUC(0‐inf)
READOUT: AUC (ng·h/mL)
Provide the reading as a plain figure in ng·h/mL.

Request: Read off the recorded AUC for O=C1c2cccc3cccc(c23)C(=O)N1Cc1cscn1 [NFa, N-(4-Thiazolemethanamino)-naphtahlimide]
Result: 5800
